Record: pIC50 reported on JAK2 (a.a. 828-1132) (Homo sapiens, UniProt O60674).
Sequence (O60674 828-1132): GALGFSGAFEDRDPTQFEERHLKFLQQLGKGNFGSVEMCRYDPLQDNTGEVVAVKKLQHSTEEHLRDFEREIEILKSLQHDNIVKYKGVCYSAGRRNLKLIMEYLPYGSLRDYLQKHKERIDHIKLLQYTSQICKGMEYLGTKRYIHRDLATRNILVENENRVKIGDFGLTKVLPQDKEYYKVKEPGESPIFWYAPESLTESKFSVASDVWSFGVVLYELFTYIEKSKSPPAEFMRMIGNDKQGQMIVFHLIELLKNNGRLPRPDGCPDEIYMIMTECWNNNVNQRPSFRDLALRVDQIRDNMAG
pIC50: −log10 of the molar value.

N#CCC(C1CCC1)n1cc(-c2ncnc3[nH]ccc23)cn1 (single isomer, unassigned); > 9.00

# ---- query compound ----
Query :: Need pIC50, item C[C@H]1C[C@@H](C(CC#N)n2cc(-c3ncnc4[nH]ccc34)cn2)C1 (single isomer, unassigned)
Result :: > 9.00

Source listed as patent US20150087662A1.
